# Test Details: Solubility of the compound in PBS at pH 7.4 after 24 to 48 hrs by spectrophotometry
# Format: physicochemical
Positions of bridges follow the written chain, without caps; N, C: chain ends. Non-standard residues stand in square brackets, D forms with d. Residues, ends and D or L forms follow the SMILES beside them. Trp(1-Me) = Cn1cc(C[C@H](N)C(=O)O)c2ccccc21; 1Nal = N[C@@H](Cc1cccc2ccccc12)C(=O)O
Measured Endpoint: solubility (µg/mL)

Compound: CC[C@H](C)[C@H](NC(C)=O)C(=O)N[C@H]1CSSC[C@@H](C(=O)N[C@H](C(N)=O)[C@@H](C)O)NC(=O)[C@H](CCCNC(=N)N)NC(=O)[C@H](Cc2cnc[nH]2)NC(=O)[C@H](C)NC(=O)CNC(=O)[C@H](Cc2c[nH]c3ccccc23)NC(=O)[C@H](CC(=O)O)NC(=O)[C@H](CCC(N)=O)NC(=O)[C@H](Cc2c[nH]c3ccccc23)NC(=O)[C@H](C(C)C)NC1=O
Observed Value: 3200

Compound: CC[C@H](C)[C@H](NC(C)=O)C(=O)N[C@H]1CSSC[C@@H](C(=O)N[C@H](C(N)=O)[C@@H](C)O)NC(=O)[C@H](CCCNC(=N)N)NC(=O)[C@H](Cc2cnc[nH]2)NC(=O)[C@H](Cc2cccc3ccccc23)NC(=O)CNC(=O)[C@H](Cc2c[nH]c3ccccc23)NC(=O)[C@H](CC(=O)O)NC(=O)[C@H](CCC(N)=O)NC(=O)[C@H](Cc2cn(C)c3ccccc23)NC(=O)[C@H](C(C)C)NC1=O (Ac-ICV[Trp(1-Me)]QDWG[1Nal]HRCT-NH2; disulfide 2-12)
Observed Value: 100

Compound: CC[C@H](C)[C@H](NC(C)=O)C(=O)N[C@H]1CSSC[C@@H](C(=O)N[C@H](C(N)=O)[C@@H](C)O)NC(=O)[C@H](CCCNC(=N)N)NC(=O)[C@H](Cc2cnc[nH]2)NC(=O)[C@H](C)NC(=O)CNC(=O)[C@H](Cc2c[nH]c3ccccc23)NC(=O)[C@H](CC(=O)O)NC(=O)[C@H](CCC(N)=O)NC(=O)[C@H](Cc2cn(C)c3ccccc23)NC(=O)[C@H](C(C)C)NC1=O
Observed Value: 1900

Compound: CC[C@H](C)[C@H](N)C(=O)N[C@H]1CSSC[C@@H](C(=O)N[C@H](C(N)=O)[C@@H](C)O)NC(=O)[C@H](CCCN=C(N)N)NC(=O)[C@H](Cc2cnc[nH]2)NC(=O)[C@H](Cc2cnc[nH]2)NC(=O)CNC(=O)[C@H](Cc2c[nH]c3ccccc23)NC(=O)[C@H](CC(=O)O)NC(=O)[C@H](CCC(N)=O)NC(=O)[C@H](C(C)C)NC(=O)[C@H](C(C)C)NC1=O [COMPSTATIN]
Observed Value: 4500

Compound: CC[C@H](C)[C@H](NC(=O)[C@H](CO)NC(=O)[C@H](CCCNC(=N)N)NC(C)=O)C(=O)N[C@H]1CSSC[C@@H](C(=O)N[C@H](C(N)=O)[C@@H](C)O)NC(=O)[C@H](CCCNC(=N)N)NC(=O)[C@H](Cc2cnc[nH]2)NC(=O)[C@H](C)NC(=O)CNC(=O)[C@H](Cc2c[nH]c3ccccc23)NC(=O)[C@H](CC(=O)O)NC(=O)[C@H](CCC(N)=O)NC(=O)[C@H](Cc2ccc(O)cc2)NC(=O)[C@H](C(C)C)NC1=O
Observed Value: 5000
